B1: FBXO39 (parent)
chain: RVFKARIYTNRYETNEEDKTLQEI

Variants of: B1
procedure_text: protein stability index of a GFP-peptide fusion (GPS, HEK-293T) (PSI 1-6); higher = more stable;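 note: lentivirally expressed fusions sorted by FACS into six bins by GFP to DsRed ratio, PSI derived from sequencing read proportions per bin multiplied by bin number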
measurement_conditions: c terminus: a fixed tail appended
attribute_measured: protein stability index
Output spec: single numeric token, no unit.

1) T20P :: 2.73

Please look at the following variant next.
## Task Dear colleague, I am looking for the recorded protein stability index of the following variant: K19Q
## Result 3.23
